experimental.system: Kelch-like ECH-associated protein 1 (Homo sapiens) (UniProt Q14145)
Sequence (Q14145 whole entry, looked up): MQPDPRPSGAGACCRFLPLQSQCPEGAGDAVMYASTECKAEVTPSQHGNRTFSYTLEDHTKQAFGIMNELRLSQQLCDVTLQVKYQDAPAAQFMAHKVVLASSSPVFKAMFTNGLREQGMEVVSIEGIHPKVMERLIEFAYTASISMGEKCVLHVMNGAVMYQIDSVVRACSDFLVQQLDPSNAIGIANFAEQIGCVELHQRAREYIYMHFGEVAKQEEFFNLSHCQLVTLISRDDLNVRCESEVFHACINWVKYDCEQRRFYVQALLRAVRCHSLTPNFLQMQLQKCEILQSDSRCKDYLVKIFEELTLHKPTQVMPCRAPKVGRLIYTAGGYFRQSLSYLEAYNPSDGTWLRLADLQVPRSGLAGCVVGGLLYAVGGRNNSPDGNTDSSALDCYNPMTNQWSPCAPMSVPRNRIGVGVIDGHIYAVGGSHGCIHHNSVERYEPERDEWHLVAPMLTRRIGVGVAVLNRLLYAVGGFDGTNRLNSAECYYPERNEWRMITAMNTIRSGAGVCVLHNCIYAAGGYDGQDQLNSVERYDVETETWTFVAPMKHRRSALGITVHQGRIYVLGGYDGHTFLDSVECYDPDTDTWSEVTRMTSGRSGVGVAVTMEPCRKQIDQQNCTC
experiment: competitive SPR blockade of Keap1/Nrf2 binding – biophysical, dry powder, orthogonal assay for Keap1-Nrf2 interaction inhibitor project, confirmation (AID 651876)
protocol.conditions: Keap1 Kelch binding to Nrf2 peptide, at 50 µM, stronger effect = higher value
property: inhibition (%)

See these solved cases before continuing.
- molecule: "Cc1cc(C)c(S(=O)(=O)Nc2nc(NCCO)nc3ccccc23)c(C)c1"
  property: "inhibition"
  measurement.unit: "%"
  observed.value: 6.8
- molecule: "Cc1cc(C)c(S(=O)(=O)Nc2ncnc3ccccc23)c(C)c1"
  property: "inhibition"
  measurement.unit: "%"
  observed.value: 1.5
- molecule: "CC(C)CNc1nc(NS(=O)(=O)c2ccccc2)c2ccccc2n1"
  property: "inhibition"
  measurement.unit: "%"
  observed.value: 3.3
- molecule: "C=CC(=O)NC[C@@H]1c2ccccc2CCN1C(=O)[C@@H]1CCCC[C@@H]1C(=O)O"
  property: "inhibition"
  measurement.unit: "%"
  observed.value: 1.1
- molecule: "COC(=O)C(C(=O)OC)c1cc(NS(=O)(=O)c2c(C)cc(C)cc2C)c2ccccc2c1O"
  property: "inhibition"
  measurement.unit: "%"
  observed.value: 93.1
- molecule: "O=C(O)C1CCCCC1C(=O)N1CCCCC1CN1C(=O)c2ccccc2C1=O (stereo not given)"
  property: "inhibition"
  measurement.unit: "%"
  observed.value: 13.5
- molecule: "Cc1ccc(S(=O)(=O)NNc2nc(NCC(N)=O)nc3ccccc23)cc1"
  property: "inhibition"
  measurement.unit: "%"
  observed.value: -9.9
- molecule: "O=C(NC[C@@H]1c2ccccc2CCN1C(=O)[C@@H]1CCCC[C@@H]1C(=O)O)c1ccccc1"
  property: "inhibition"
  measurement.unit: "%"
  observed.value: -3.5

(1) O=C(O)CCCC(=O)N1CCc2ccccc2C1CN1C(=O)c2ccccc2C1=O (stereo not given)
(2) Cc1cc(C)c(S(=O)(=O)Nc2cc(C(C(=O)OC(C)C)C(=O)C(F)(F)F)c(O)c3ccccc23)c(C)c1 (stereo not given)
Returns the identifier with the smallest measured inhibition among 1 and 2 . Record your answer as the label of the chosen record.
1
(1: 2.3%, 2: 105%)

----------
experimental.system: Kelch-like ECH-associated protein 1 (Homo sapiens)
experiment: competitive SPR blockade of Keap1/Nrf2 binding – biophysical, dry powder, orthogonal assay for Keap1-Nrf2 interaction inhibitor project, confirmation (AID 651876)
protocol.conditions: Keap1 Kelch binding to Nrf2 peptide, inhibition, at 5 µM, stronger effect = higher value
property: inhibition (%)

See these solved cases before continuing.
- compound: "O=C(O)C1CCCCC1C(=O)NCC1c2ccccc2CCN1C(=O)Cc1ccccc1 (configuration not stated)"
  observed.value: 3.3
- compound: "O=C(O)CC(=O)N1CCc2ccccc2C1CN1C(=O)c2ccccc2C1=O (configuration not stated)"
  observed.value: -2.4
- compound: "O=C(O)C1CCCCC1C(=O)N1CCc2ccccc2[C@H]1C(=O)NC12CC3CC(CC(C3)C1)C2 (some centres not stated)"
  observed.value: -11.6

(P) Cc1cc(C)c(S(=O)(=O)Nc2cc(C(C(=O)OC(C)C)C(=O)C(F)(F)F)c(O)c3ccccc23)c(C)c1 (configuration not stated)
(Q) O=C(O)CCCC(=O)N1CCc2ccccc2C1CN1C(=O)c2ccccc2C1=O (configuration not stated)
(R) O=C(O)[C@H]1CCCC[C@H]1C(=O)N1CCc2ccccc2[C@H]1CNS(=O)(=O)c1ccccc1
(S) O=C(O)C1CCCCC1C(=O)N1CCc2ccccc2C1c1ccccc1 (configuration not stated)
Arrange by inhibition, high to low. Dear reader, please state the labels in the requested order.
P, Q, S, R

(I) O=C(O)CCC(=O)N1CCc2ccccc2C1CN1C(=O)c2ccccc2C1=O (configuration not stated)
(II) O=C(O)c1ccccc1C(=O)N1CCc2ccccc2C1CN1C(=O)c2ccccc2C1=O (configuration not stated)
Between these two entries, I and II , state which has the higher inhibition. Record your answer as the label of the chosen record.
II
(II: 1.9%, I: -2.3%)
